# assayRemarks: Half life in Sprague-Dawley rat at 5 mg/kg, po
# Assay type: ADME, organism-based
# Design: dose 5 mg/kg, route oral
# protocolConditions: in vivo
Exercise: for every item that follows, state its recorded half-life.
Give the number first and the unit second.

Completed entries (count: 2):
[[record]]
compound = "C[C@H](NC(=O)C(C)(C)Oc1ccc(C(F)(F)F)cn1)[C@@H](Cc1ccc(Cl)cc1)c1cccc(C#N)c1 [TARANABANT]"
quantityname = "half-life"
value = "14.8 h"

[[record]]
compound = "CC(C)(C)c1nnc(-c2nn(-c3ccccc3Cl)c(-c3ccc(Br)cc3)c2Cn2cncn2)s1"
quantityname = "half-life"
value = "7.11 h"


As a next step, examine the compound that follows.
Please indicate half-life recorded for Cc1c(C(=O)NN2CCCCC2)nn(-c2ccc(Cl)cc2Cl)c1-c1ccc(Cl)cc1 [RIMONABANT]
8.23 h
